The entries below come with measured MIC values attached.
Tested on: M. phlei DSM 750
Assay: Microdilution assay, MIC
Type: cell-based
Settings: Mycolicibacterium phlei, DSM750; Gram-positive; MHBII media, 37° C., 20 h; read-out: MIC M. phlei DSM 750
Write the value in µg/mL as a bare number.

MOLECULE	PROPERTY	REPORTED_VALUE
COc1c(/C=C/c2ccc(NC(=O)[C@H](Cc3cnn[nH]3)NC(=O)c3ccc(NC(=O)/C(C)=C/c4ccc(O)cc4)cc3)cc2)ccc(C(=O)Nc2ccc(C(=O)O)c(O)c2OC)c1O [Compound 17]	MIC	0.5

query: // Input: COc1c(NC(=O)c2ccc(NC(=O)c3ccc(NC(=O)[C@H](Cc4cnn[nH]4)NC(=O)c4ccc(C#Cc5ccc(O)cc5)cc4)cc3)c(OC)c2O)ccc(C(=O)O)c1O [Compound 5] . Output its MIC only.
result: 1

query: // Input: COc1c(NC(=O)c2ccc(NC(=O)c3ccc(NC(=O)[C@H](Cc4cnn[nH]4)NC(=O)c4ccc(/C=C/c5ccc(O)cc5)cc4)cc3)c(OC)c2O)ccc(C(=O)O)c1O [Compound 3] . Output its MIC only.
result: 4

query: // Input: C#Cc1ccc(C(=O)Nc2ccc(C(=O)N[C@@H](Cc3cnn[nH]3)C(=O)Nc3ccc(C(=O)Nc4ccc(C(=O)Nc5ccc(C(=O)O)c(O)c5OC)c(O)c4OC)cc3)cc2)cc1 [Compound 14] . Output its MIC only.
result: 1

query: // Input: COc1ccc(C#Cc2ccc(C(=O)N[C@@H](Cc3cnn[nH]3)C(=O)Nc3ccc(C(=O)Nc4ccc(C(=O)Nc5ccc(C(=O)O)c(O)c5OC)c(O)c4OC)cc3)cc2)cn1 [Compound 4] . Output its MIC only.
result: 1
